Here, each record is paired with measured inhibition of growth at 10 µM data.
Tested on: SK-MEL-5
Assay explanation: Growth inhibition of human SK-MEL-5 cells assessed as growth inhibition at 10 uM by sulforhodamine B assay
Type: functional
Assay context: read-out: GI
Give a bare numeral; the unit % is implied.

Structure	Target desc	Unit	inhibition of growth at 10 µM
COc1cc(/C=C2\C[C@]3(C)[C@H]4CC=C5[C@@H]6CC(C)(C)C[C@@H](O)[C@]6(C(=O)O)CC[C@@]5(C)[C@]4(C)CC[C@H]3C(C)(C)C2=O)ccc1O	SK-MEL-5	%	11.9

Please look at the following compound next.
In plain terms, `C/C=C(/C)C(=O)O[C@@H]1CC(C)(C)C[C@H]2C3=CC[C@@H]4[C@@]5(C)CC[C@H](O)C(C)(C)[C@@H]5CC[C@@]4(C)[C@]3(C)CC[C@@]12C(=O)O` has a documented inhibition of growth at 10 µM of 46.8
